Values from paper PMC10716637

Reported IC50 by item:
assay-target: VEGFR-2 (Homo sapiens)
Sequence (P35968 20-1356): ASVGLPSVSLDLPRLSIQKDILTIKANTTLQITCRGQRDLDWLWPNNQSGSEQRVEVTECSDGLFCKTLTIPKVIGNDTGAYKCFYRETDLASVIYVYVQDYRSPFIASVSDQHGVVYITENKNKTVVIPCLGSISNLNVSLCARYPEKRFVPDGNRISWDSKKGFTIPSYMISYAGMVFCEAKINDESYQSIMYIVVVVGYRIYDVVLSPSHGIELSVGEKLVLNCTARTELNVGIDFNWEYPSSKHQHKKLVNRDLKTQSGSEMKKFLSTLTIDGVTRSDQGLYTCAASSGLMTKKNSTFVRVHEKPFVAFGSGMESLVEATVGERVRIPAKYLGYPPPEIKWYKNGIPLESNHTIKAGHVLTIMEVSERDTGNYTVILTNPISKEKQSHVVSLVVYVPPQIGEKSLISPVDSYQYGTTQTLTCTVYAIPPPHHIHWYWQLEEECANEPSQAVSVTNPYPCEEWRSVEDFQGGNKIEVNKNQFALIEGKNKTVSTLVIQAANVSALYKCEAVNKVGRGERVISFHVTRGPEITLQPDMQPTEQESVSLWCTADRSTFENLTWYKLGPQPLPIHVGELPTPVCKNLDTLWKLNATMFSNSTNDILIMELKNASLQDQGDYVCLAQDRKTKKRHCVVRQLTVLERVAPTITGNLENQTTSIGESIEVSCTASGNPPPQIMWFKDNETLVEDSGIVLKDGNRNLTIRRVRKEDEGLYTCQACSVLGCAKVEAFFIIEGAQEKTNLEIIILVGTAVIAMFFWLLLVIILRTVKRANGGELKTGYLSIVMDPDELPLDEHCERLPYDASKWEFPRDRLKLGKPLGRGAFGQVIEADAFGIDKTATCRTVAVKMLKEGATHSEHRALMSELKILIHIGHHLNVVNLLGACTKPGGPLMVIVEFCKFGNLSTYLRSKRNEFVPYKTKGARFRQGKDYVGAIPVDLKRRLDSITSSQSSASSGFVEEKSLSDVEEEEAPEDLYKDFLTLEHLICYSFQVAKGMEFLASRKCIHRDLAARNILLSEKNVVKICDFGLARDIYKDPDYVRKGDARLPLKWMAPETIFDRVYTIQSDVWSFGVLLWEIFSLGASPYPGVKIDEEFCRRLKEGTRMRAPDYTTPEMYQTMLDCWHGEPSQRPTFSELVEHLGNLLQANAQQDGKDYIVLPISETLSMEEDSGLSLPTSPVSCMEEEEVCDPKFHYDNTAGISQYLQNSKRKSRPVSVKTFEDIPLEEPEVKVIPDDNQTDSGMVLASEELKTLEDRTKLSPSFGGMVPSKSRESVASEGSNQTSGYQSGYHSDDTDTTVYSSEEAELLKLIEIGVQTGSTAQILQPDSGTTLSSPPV
Response body: numeric value in µM, unit text excluded.

// solved cases for IC50 follow
CCn1c(=O)n(CC(=O)Nc2ccc(-c3nnc(S)o3)cc2)c(=O)c2cc(I)ccc21 [Compound 8a]: 1.5
CCCn1c(=O)n(CC(=O)Nc2ccc(C(=O)NN)cc2)c(=O)c2cc(I)ccc21 [Compound 7b]: 2.25
CCCn1c(=O)n(CC(=O)Nc2ccc(C(=O)NN=Cc3ccccc3)cc2)c(=O)c2cc(I)ccc21 [Compound 9d]: 0.9
CCn1c(=O)n(CC(=O)Nc2ccc(C(=O)NN=Cc3ccccc3)cc2)c(=O)c2cc(I)ccc21 [Compound 9a]: 1
CCn1c(=O)n(CC(=O)Nc2ccc(C(=O)NN=Cc3ccc(OC)cc3)cc2)c(=O)c2cc(I)ccc21 [Compound 9c]: 0.85

// fetch IC50 for CCNC(=O)c1ccc(NC(=O)Cn2c(=O)c3cc(I)ccc3n(CC)c2=O)cc1 [Compound 6a] ; system: VEGFR-2 (Homo sapiens)
1.4

Enter IC50 (test system VEGFR-2 (Homo sapiens)) for CCn1c(=O)n(CC(=O)Nc2ccc(C(=O)NN=Cc3ccc(C)cc3)cc2)c(=O)c2cc(I)ccc21 [Compound 9b]
0.9

Under VEGFR-2 (Homo sapiens), report IC50 for CCCn1c(=O)n(CC(=O)Nc2ccc(C(=O)OC)cc2)c(=O)c2cc(I)ccc21 [Compound 5c]
1.5
